# system_under_test: GST-NTL6(1-168) (Arabidopsis thaliana, UniProt Q9SCK6 1-168)
# Sequence (Q9SCK6 1-168): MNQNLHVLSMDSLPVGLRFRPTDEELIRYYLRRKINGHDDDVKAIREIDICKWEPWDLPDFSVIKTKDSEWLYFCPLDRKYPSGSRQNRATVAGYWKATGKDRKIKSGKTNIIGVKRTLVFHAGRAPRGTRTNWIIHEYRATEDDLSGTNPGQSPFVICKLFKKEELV
# protocol_details: universal protein binding microarray (PBM); high values mean tight binding
# condition_notes: protein: recombinant; tags: GST; chain copies: 2; dsDNA, one strand shown
Would you please tag the item true when its binding signal is 0.3 E-score or above, and false when it is below?

sequence_code=AGGTAACC label_class=false
sequence_code=GCTTTCCC label_class=false

Query :: Check if binding signal >= 0.3 E-score (inclusive). Item: TCGCGTAA
Result :: false

Query :: Check if binding signal >= 0.3 E-score (inclusive). Item: GTACGTCA
Result :: false

Query :: Check if binding signal >= 0.3 E-score (inclusive). Item: CTTCCTTA
Result :: true

Query :: Check if binding signal >= 0.3 E-score (inclusive). Item: CTATTGAC
Result :: false

Query :: Check if binding signal >= 0.3 E-score (inclusive). Item: ACGTTTCC
Result :: false

Query :: Check if binding signal >= 0.3 E-score (inclusive). Item: CGAAGCAA
Result :: true

Query :: Check if binding signal >= 0.3 E-score (inclusive). Item: CCACGTAA
Result :: false

Query :: Check if binding signal >= 0.3 E-score (inclusive). Item: ACTAAGTA
Result :: true

====

# system_under_test: GST-NTL8 NAC domain (Arabidopsis thaliana, UniProt Q9XIN7 14-156)
# Sequence: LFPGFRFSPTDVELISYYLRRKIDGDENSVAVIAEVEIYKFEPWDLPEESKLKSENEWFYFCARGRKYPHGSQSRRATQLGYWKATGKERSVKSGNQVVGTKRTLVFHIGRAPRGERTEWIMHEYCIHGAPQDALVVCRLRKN
# protocol_details: universal protein binding microarray (PBM); high values mean tight binding
# condition_notes: protein: recombinant; tags: GST; chain copies: 2; dsDNA, one strand shown
Would you please tag the item class 1 when its binding signal is 0.1 E-score or above, and class 0 when it is below?

sequence_code=CTTGCGTA label_class="class 0"
sequence_code=CTAGTCAA label_class="class 0"
sequence_code=AATTACGT label_class="class 1"
sequence_code=CGGGGTCA label_class="class 1"

Query :: Check if binding signal >= 0.1 E-score (inclusive). Item: GTTCCTTA
Result :: class 1

Query :: Check if binding signal >= 0.1 E-score (inclusive). Item: AGAGGGAA
Result :: class 1

Query :: Check if binding signal >= 0.1 E-score (inclusive). Item: AAGTCTTC
Result :: class 0

Query :: Check if binding signal >= 0.1 E-score (inclusive). Item: AAGGAATC
Result :: class 1

Query :: Check if binding signal >= 0.1 E-score (inclusive). Item: CGTTTCCC
Result :: class 1

Query :: Check if binding signal >= 0.1 E-score (inclusive). Item: AGGTAACC
Result :: class 1

Query :: Check if binding signal >= 0.1 E-score (inclusive). Item: GAAGCAAC
Result :: class 1

Query :: Check if binding signal >= 0.1 E-score (inclusive). Item: CACGCAAA
Result :: class 0

Query :: Check if binding signal >= 0.1 E-score (inclusive). Item: ATTGCGTA
Result :: class 0

====

# binding signal per entry
# system_under_test: GST-NTL8 NAC domain (Arabidopsis thaliana, UniProt Q9XIN7 14-156)
# Sequence: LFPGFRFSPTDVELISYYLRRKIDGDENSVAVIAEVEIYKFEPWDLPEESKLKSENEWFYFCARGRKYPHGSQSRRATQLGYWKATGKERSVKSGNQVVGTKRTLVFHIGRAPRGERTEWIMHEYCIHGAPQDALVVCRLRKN
# protocol_details: universal protein binding microarray (PBM); high values mean tight binding
# condition_notes: protein: recombinant; tags: GST; chain copies: 2; dsDNA, one strand shown
Write the answer as a number in E-score, unit excluded.

sequence_code=CTTGACTA quantity_unit=E-score val=0.0949
sequence_code=CACGAAAC quantity_unit=E-score val=0.137
sequence_code=ACACGGCA quantity_unit=E-score val=0.0652
sequence_code=TGAAGGAA quantity_unit=E-score val=0.469
sequence_code=TAAGAAAA quantity_unit=E-score val=0.216

Query :: Form field: binding signal recorded for AAAGGTAA with GST-NTL8 NAC domain (Arabidopsis thaliana, UniProt Q9XIN7 14-156) (enter value)
Result :: 0.402

Query :: Form field: binding signal recorded for CGTACGCA with GST-NTL8 NAC domain (Arabidopsis thaliana, UniProt Q9XIN7 14-156) (enter value)
Result :: 0.0905

Query :: Form field: binding signal recorded for TAAGGTCA with GST-NTL8 NAC domain (Arabidopsis thaliana, UniProt Q9XIN7 14-156) (enter value)
Result :: 0.0905

Query :: Form field: binding signal recorded for CGTGCACG with GST-NTL8 NAC domain (Arabidopsis thaliana, UniProt Q9XIN7 14-156) (enter value)
Result :: 0.0868

Query :: Form field: binding signal recorded for GTACGCTA with GST-NTL8 NAC domain (Arabidopsis thaliana, UniProt Q9XIN7 14-156) (enter value)
Result :: 0.129

Query :: Form field: binding signal recorded for CGTTGACC with GST-NTL8 NAC domain (Arabidopsis thaliana, UniProt Q9XIN7 14-156) (enter value)
Result :: 0.123

====

# binding signal per entry
# system_under_test: GST-VND7 NAC domain (Arabidopsis thaliana, UniProt Q9C8W9 9-158)
# Sequence: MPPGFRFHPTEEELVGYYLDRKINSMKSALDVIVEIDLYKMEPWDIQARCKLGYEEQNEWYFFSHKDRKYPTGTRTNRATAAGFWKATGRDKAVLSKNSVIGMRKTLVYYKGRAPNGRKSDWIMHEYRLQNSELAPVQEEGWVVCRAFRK
# protocol_details: universal protein binding microarray (PBM); high values mean tight binding
# condition_notes: protein: recombinant; tags: GST; chain copies: 2; dsDNA, one strand shown
Write the answer as a number in E-score, unit excluded.

sequence_code=AAGCACGC quantity_unit=E-score val=0.0817

Query :: // returns reported binding signal for input ATTTCTTA
Result :: 0.148

Query :: // returns reported binding signal for input ATACGGAA
Result :: 0.38

Query :: // returns reported binding signal for input GTACGCGA
Result :: 0.133

====

# system_under_test: GST-NTL6(1-168) (Arabidopsis thaliana, UniProt Q9SCK6 1-168)
# protocol_details: universal protein binding microarray (PBM); high values mean tight binding
# condition_notes: protein: recombinant; tags: GST; chain copies: 2; dsDNA, one strand shown
# binding signal per entry
Write the answer as a number in E-score, unit excluded.

sequence_code=TAGCGTGA property="binding signal" quantity_unit=E-score val=0.0555
sequence_code=TGAGGAAA property="binding signal" quantity_unit=E-score val=0.106
sequence_code=TTAAGTAA property="binding signal" quantity_unit=E-score val=0.48
sequence_code=GTACGTAA property="binding signal" quantity_unit=E-score val=0.174
sequence_code=ATACGCAA property="binding signal" quantity_unit=E-score val=0.0867

Query :: // returns reported binding signal for input ATGACGTA
Result :: 0.0683

Query :: // returns reported binding signal for input AATGCCGT
Result :: 0.0523

====

# system_under_test: GST-NST2(1-184) (Arabidopsis thaliana, UniProt Q9M274 1-184)
# Sequence: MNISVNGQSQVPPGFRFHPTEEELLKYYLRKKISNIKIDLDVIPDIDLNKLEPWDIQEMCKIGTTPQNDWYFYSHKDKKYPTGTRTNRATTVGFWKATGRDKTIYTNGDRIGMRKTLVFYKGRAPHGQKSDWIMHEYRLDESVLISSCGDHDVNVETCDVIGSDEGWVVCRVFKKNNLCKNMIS
# protocol_details: universal protein binding microarray (PBM); high values mean tight binding
# condition_notes: protein: recombinant; tags: GST; chain copies: 2; dsDNA, one strand shown
# binding signal per entry
Write the answer as a number in E-score, unit excluded.

Query :: // returns reported binding signal for input TAAAGCAA
Result :: 0.262

Query :: // returns reported binding signal for input CTTCCTTA
Result :: 0.151

====

# system_under_test: GST-WRKY1(266-371) (Arabidopsis thaliana, UniProt Q9SI37 266-371)
# Sequence (Q9SI37 266-371): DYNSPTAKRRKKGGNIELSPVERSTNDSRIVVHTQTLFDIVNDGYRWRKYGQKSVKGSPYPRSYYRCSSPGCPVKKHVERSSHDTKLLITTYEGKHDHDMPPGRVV
# protocol_details: universal protein binding microarray (PBM); transcription factors of Arabidopsis thaliana; high values mean tight binding
# condition_notes: protein: recombinant; tags: GST; dsDNA, one strand shown
Would you please tag the item y when its binding signal is 0.4 E-score or above, and n when it is below?

sequence_code=AGACGCAA label_class=n

Query :: Check if binding signal >= 0.4 E-score (inclusive). Item: ACGGCAGT
Result :: n

Query :: Check if binding signal >= 0.4 E-score (inclusive). Item: TAACGTAA
Result :: n

Query :: Check if binding signal >= 0.4 E-score (inclusive). Item: GATTGACC
Result :: y

Query :: Check if binding signal >= 0.4 E-score (inclusive). Item: TGACTTAA
Result :: y

Query :: Check if binding signal >= 0.4 E-score (inclusive). Item: AGTTTGAC
Result :: y

Query :: Check if binding signal >= 0.4 E-score (inclusive). Item: AAGTCAAG
Result :: y

Query :: Check if binding signal >= 0.4 E-score (inclusive). Item: CGGTCAAG
Result :: y

Query :: Check if binding signal >= 0.4 E-score (inclusive). Item: ATGAGTCA
Result :: y

Query :: Check if binding signal >= 0.4 E-score (inclusive). Item: AGGGGTCA
Result :: y

Query :: Check if binding signal >= 0.4 E-score (inclusive). Item: ATAAGTCA
Result :: y

Query :: Check if binding signal >= 0.4 E-score (inclusive). Item: CAGGTCAG
Result :: y

Query :: Check if binding signal >= 0.4 E-score (inclusive). Item: GCGTGCAC
Result :: n

Query :: Check if binding signal >= 0.4 E-score (inclusive). Item: GTCACGCA
Result :: n
